Consider the following molecules and their measured inhibition readings.
Molecular target: Sulfhydryl oxidase 1 (Homo sapiens)
Assay: QSOX1 enzyme inhibitors, primary screen, biochemical, ROS-Glo H2O2 luminescence, HTS (AID 1347418)
Settings: recombinant QSOX1, ROS-Glo H2O2 luminescence; at 12.5 µM; hits give high values; active = any value above zero
Out of some 1,300 compounds screened, about 750 (58%) were called active. This is one part of the list.

>  <Molecule>
Cn1ccnc1

>  <inhibition (%)>
-4.4

$$$$
>  <Molecule>
CCN(CC)CCCCCCCCOC(=O)c1cc(OC)c(OC)c(OC)c1

>  <inhibition (%)>
6.2

$$$$
>  <Molecule>
CN(C)CCN(Cc1cccs1)c1ccccn1

>  <inhibition (%)>
7

$$$$
>  <Molecule>
COc1cc2c(CCNC(C)=O)c[nH]c2cc1O

>  <inhibition (%)>
45.2

$$$$
>  <Molecule>
Cc1cccc(C)c1NC(=O)C(C)N (stereo unspecified)

>  <inhibition (%)>
8

$$$$
>  <Molecule>
CCCN(CCC)C(=O)C(CCC(=O)O)NC(=O)c1ccccc1 (stereo unspecified)

>  <inhibition (%)>
-6.3

$$$$
>  <Molecule>
O=C(O)Cc1c[nH]c2ccc(O)cc12

>  <inhibition (%)>
15.6

$$$$
>  <Molecule>
O=C1N=C([O-])CN1/N=C/C1=C[C+]=C(c2ccc([N+](=O)[O-])cc2)O1

>  <inhibition (%)>
3.6

$$$$
>  <Molecule>
CC[C@H](C)C(=O)O[C@H]1CCC=C2C=C[C@H](C)[C@H](CC[C@@H]3C[C@@H](O)CC(=O)O3)[C@H]21

>  <inhibition (%)>
-6.8

$$$$
>  <Molecule>
NC(N)=NC(=O)Cc1c(Cl)cccc1Cl

>  <inhibition (%)>
-6.8

$$$$
>  <Molecule>
CCC(=O)c1ccc2c(c1)N(CCCN(C)C)c1ccccc1S2

>  <inhibition (%)>
20.9

$$$$
>  <Molecule>
CCCCNc1ccc(C(=O)OCCN(C)C)cc1

>  <inhibition (%)>
-1.8

$$$$
>  <Molecule>
NC(N)=NC(N)=Nc1ccccc1

>  <inhibition (%)>
-4.7

$$$$
>  <Molecule>
COc1ccc2[nH]cc(CCNC(C)=O)c2c1

>  <inhibition (%)>
5.6

$$$$
>  <Molecule>
C=CC[C@H](N)C(=O)O

>  <inhibition (%)>
4.9

$$$$
>  <Molecule>
CCN(CC)CCOC(=O)c1ccc(N)cc1

>  <inhibition (%)>
-3.4

$$$$
>  <Molecule>
CC12CC3CC(C)(C1)CC(N)(C3)C2

>  <inhibition (%)>
3.5

$$$$
>  <Molecule>
CN1CCC(=C2c3ccccc3C=Cc3ccccc32)CC1

>  <inhibition (%)>
2.2

$$$$
>  <Molecule>
Cn1c(=O)c2[nH]c(C3CCCC3)nc2n(C)c1=O

>  <inhibition (%)>
3.9

$$$$
>  <Molecule>
COCC(=O)O[C@]1(CCN(C)CCCc2nc3ccccc3[nH]2)CCc2cc(F)ccc2[C@@H]1C(C)C

>  <inhibition (%)>
-5.7

$$$$
>  <Molecule>
CCC(NC(C)C)C(O)c1ccc(O)c(O)c1 (stereo unspecified)

>  <inhibition (%)>
6.4

$$$$
>  <Molecule>
Oc1ccc(-c2nc(-c3ccc(F)cc3)c(-c3ccncc3)[nH]2)cc1

>  <inhibition (%)>
31.8

$$$$
>  <Molecule>
CCCNC(C)C(=O)Nc1ccccc1C (stereo unspecified)

>  <inhibition (%)>
-4.7

$$$$
>  <Molecule>
NNc1nncc2ccccc12

>  <inhibition (%)>
26.1

$$$$
>  <Molecule>
COc1cc2c(cc1OC)-c1cc(=Nc3c(C)cc(C)cc3C)n(C)c(=O)n1CC2

>  <inhibition (%)>
-1.4

$$$$
>  <Molecule>
O=c1cc(-c2ccccc2)[nH]c2nc(Cl)ccc12

>  <inhibition (%)>
-0.2

$$$$

* * *

Biological target: Sulfhydryl oxidase 1 (Homo sapiens)
Assay: QSOX1 enzyme inhibitors, primary screen, biochemical, ROS-Glo H2O2 luminescence, HTS (AID 1347418)
Conditions: recombinant QSOX1, ROS-Glo H2O2 luminescence; at 12.5 µM; hits give high values; active = any value above zero
The whole screen tested about 1,300 compounds, of which about 750 (58%) were called active. This is one part of the list.
Labels: Y = active, N = inactive

>  <Compound>
O=C1C(SCCO)=C(SCCO)C(=O)c2ccccc21

>  <Category Label>
N

$$$$
>  <Compound>
C#CCn1c(=O)c2c(ncn2C)n(C)c1=O

>  <Category Label>
N

$$$$
>  <Compound>
O=c1cc(-c2ccccc2F)[nH]c2cc3c(cc12)OCO3

>  <Category Label>
Y

$$$$
>  <Compound>
Nc1ccc(-c2ccc3ccccc3n2)cc1

>  <Category Label>
Y

$$$$
>  <Compound>
CN1C2CCC1CC(OC(=O)C(CO)c1ccccc1)C2 (stereo unspecified)

>  <Category Label>
Y

$$$$
>  <Compound>
OC[C@H]1O[C@@H](n2cnc3cncnc32)[C@H](O)[C@@H]1O

>  <Category Label>
Y

$$$$
>  <Compound>
Cc1cc(C(C)(C)C)cc(C)c1CC1=NCCN1

>  <Category Label>
Y

$$$$
>  <Compound>
C[C@H](Cc1ccccc1)Nc1ncnc2c1ncn2[C@@H]1O[C@H](CO)[C@H](O)C1O (stereo partly specified)

>  <Category Label>
Y

$$$$
>  <Compound>
OC[C@H]1O[C@@H](n2cnc3c(NC4CCCCC4)ncnc32)[C@H](O)[C@@H]1O

>  <Category Label>
Y

$$$$
>  <Compound>
CCCn1cnc2c1c(=O)n(CCCCC(C)=O)c(=O)n2C

>  <Category Label>
Y

$$$$
>  <Compound>
N=C(N)SCCc1cnc[nH]1

>  <Category Label>
Y

$$$$
>  <Compound>
Nc1ncnc2c1ncn2[C@@H]1O[C@H](CO)[C@H](O)C1O (stereo partly specified)

>  <Category Label>
N

$$$$
>  <Compound>
CC(C)Cn1c(=O)n(C)c(=O)c2[nH]cnc21

>  <Category Label>
Y

$$$$
>  <Compound>
O=c1cc(-c2ccc(O)cc2)oc2cc(O)cc(O)c12

>  <Category Label>
Y

$$$$
>  <Compound>
NC(=S)c1ccc[n+]([C@@H]2O[C@@H](COP(=O)([O-])OP(=O)(O)OC[C@H]3O[C@@H](n4cnc5c(N)ncnc54)C(OP(=O)(O)O)[C@H]3O)C(O)C2O)c1 (stereo partly specified)

>  <Category Label>
Y

$$$$
>  <Compound>
Nc1nc2c(ncn2[C@@H]2O[C@H](CO)[C@@H](O)[C@@H]2O)c(=O)[nH]1

>  <Category Label>
N

$$$$
>  <Compound>
COc1cc(SC)ccc1C(=O)N1CCC(Cc2ccccc2)CC1

>  <Category Label>
Y

$$$$
>  <Compound>
CCCn1c(=O)c2c(ncn2C)n(CCC)c1=O

>  <Category Label>
Y

$$$$
>  <Compound>
CCOC(=O)C1=C(C)NC(C)=C(C(=O)OC)C1c1cccc(Cl)c1Cl (stereo unspecified)

>  <Category Label>
Y

$$$$
>  <Compound>
Cc1nc2c([nH]1)c(=O)n(C)c(=O)n2Cc1ccco1

>  <Category Label>
N

$$$$
>  <Compound>
NC(=O)C1=C[N+](=C2OC(COP(=O)(O)OP(=O)([O-])OC[C@H]3O[C@@H](n4cnc5c(N)ncnc54)C(OP(=O)(O)O)[C@H]3O)C(O)C2O)C=CC1 (stereo partly specified)

>  <Category Label>
N

$$$$
>  <Compound>
O=c1c(O)c(-c2ccc(O)cc2O)oc2cc(O)cc(O)c12

>  <Category Label>
Y

$$$$
>  <Compound>
C[C@H](NC(=O)/C(C#N)=C/c1ccc(O)c(O)c1)c1ccccc1

>  <Category Label>
Y

$$$$
>  <Compound>
C[C@H](O)C(=O)C1=Nc2c(nc(N)[nH]c2=O)NC1

>  <Category Label>
Y

$$$$
>  <Compound>
O=c1c(O)c(-c2cc(O)c(O)c(O)c2)oc2cc(O)cc(O)c12

>  <Category Label>
Y

$$$$
>  <Compound>
N#C/C(=C\c1ccc(O)c(O)c1)C(=O)Nc1ccccc1

>  <Category Label>
Y

$$$$
